pIC50 values for the compounds below.
# system: human neutrophil elastase (Homo sapiens (Human), UniProt P08246)
# Sequence (P08246 30-247): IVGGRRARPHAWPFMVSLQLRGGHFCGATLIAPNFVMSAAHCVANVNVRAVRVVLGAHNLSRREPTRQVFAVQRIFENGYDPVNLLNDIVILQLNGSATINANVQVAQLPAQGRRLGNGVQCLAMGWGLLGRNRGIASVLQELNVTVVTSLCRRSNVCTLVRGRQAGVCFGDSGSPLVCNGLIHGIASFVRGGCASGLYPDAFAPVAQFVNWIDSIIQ
# assay details: Time dependence of elastase inhibition
# Assay type: biochemical
# study conditions: 5 min incubation with inhibitor
pIC50: −log10 of the molar value.

| compound | pIC50 |
| --- | --- |
| CC(C)[C@H](NC(=O)[C@@H]1CCCN1C(=O)[C@@H](NC(=O)c1ccc(C(=O)NCC(=O)O)cc1)C(C)C)B(O)O [Compound 52] | 11.40 |
| Cc1c(-c2ccnn2-c2ccc(C#N)cc2)cc(C(=O)NCC(O)CNC(=O)c2cc(-c3ccnn3-c3ccc(C#N)cc3)c(C)n(-c3cccc(C(F)(F)F)c3)c2=O)c(=O)n1-c1cccc(C(F)(F)F)c1 [Compound 58] | 10.96 |
| CC(C)[C@H](NC(=O)[C@@H]1CCCN1C(=O)[C@@H](NC(=O)c1ccc(C(=O)NS(=O)(=O)c2ccc(Cl)cc2)cc1)C(C)C)B(O)O [Compound 51] | 10.57 |

---

# assay details: Mouse Liver Microsomal Metabolic Stability Assay
# study conditions: mouse, liver microsomes, pH 7.4

| smiles str | microsomal CLint at 1 μM [µL/min/mg] |
| --- | --- |
| O=C(O)Cc1ccccc1Nc1c(Cl)cccc1Cl | 27.2 |

---

# assay details: Mouse Liver Microsomal Metabolic Stability Assay
# study conditions: mouse, liver microsomes, pH 7.4
result type: CLint scaled at 1 μM (mL/min/kg)

| smiles str | result type | unit info | result number |
| --- | --- | --- | --- |
| O=C(O)Cc1ccccc1Nc1c(Cl)cccc1Cl | CLint scaled at 1 μM | mL/min/kg | 108 |

---

# assay details: Plasma Stability Assay
# Assay type: in vitro ADME, mouse
# study conditions: CD-1 Mouse Plasma, 120 min
# Lookup of reported % Remaining (mean) keyed by entry
result type: % Remaining (mean)

| molecule | result type | result |
| --- | --- | --- |
| CC(C)[N+](C)(CCOC(=O)C1c2ccccc2Oc2ccccc21)C(C)C [Propantheline] | % Remaining (mean) | 7.7% |
| CC(C)[C@H](NC(=O)[C@@H]1CCCN1C(=O)[C@@H](NC(=O)c1ccc(C(=O)NCC(=O)O)cc1)C(C)C)B(O)O [Compound 52] | % Remaining (mean) | 79.2% |
| COC(=O)N[C@H](C(=O)N1CCC[C@H]1C(=O)N[C@H](B(O)O)C(C)C)C(C)C [Compound 50] | % Remaining (mean) | 76.7% |
| CC(C)[C@H](NC(=O)[C@@H]1CCCN1C(=O)[C@@H](NC(=O)c1ccc(C(=O)NS(=O)(=O)c2ccc(Cl)cc2)cc1)C(C)C)B(O)O [Compound 51] | % Remaining (mean) | 90.3% |

---

# assay details: Plasma Stability Assay
# Assay type: in vitro ADME, mouse
# study conditions: CD-1 Mouse Plasma, 10 min
# Experimental: Propantheline was used as the reference compound in this assay; all stock solutions were stored at −40° C. before use. • 2) Test system: CD-1 Mouse Plasma from a minimum of 20 male individuals were obtained from BioreclamationlVT (Catalog #: […]2-M; Batch #: MSE244515). […] LC-MS/MS condition: Each compound was analyzed by LC/MS using an ACE 5-phenyl 50×2.1 mm column (Part No. ACE-125-0502) with 0.1% formic acid in water and 0.1% formic acid in acetonitrile as the mobile phases. […]
Overview of recorded % Remaining (mean) for various molecules

| molecule | unit info | % Remaining (mean) |
| --- | --- | --- |
| CC(C)[N+](C)(CCOC(=O)C1c2ccccc2Oc2ccccc21)C(C)C [Propantheline] | % | 76.8 |
| CC(C)[C@H](NC(=O)[C@@H]1CCCN1C(=O)[C@@H](NC(=O)c1ccc(C(=O)NS(=O)(=O)c2ccc(Cl)cc2)cc1)C(C)C)B(O)O [Compound 51] | % | 90.0 |
| CC(C)[C@H](NC(=O)[C@@H]1CCCN1C(=O)[C@@H](NC(=O)c1ccc(C(=O)NCC(=O)O)cc1)C(C)C)B(O)O [Compound 52] | % | 116.1 |
| COC(=O)N[C@H](C(=O)N1CCC[C@H]1C(=O)N[C@H](B(O)O)C(C)C)C(C)C [Compound 50] | % | 100.5 |
